# Method Notes: The compound was evaluated for the inhibition of [125I]- Angiotensin II (AII) binding to rat mesenteric membranes
# Assay type: cell membranes, Membrane
Measured Attribute: pIC50
API: returns pIC50 as number; meaning -log10 of concentration in mol/L.

Give its pIC50 value. Item: `CCCCc1ncc(/C=C(/Cc2ccccc2)C(=O)O)n1Cc1ccccc1Cl`
5.59

Proceeding to the next molecule to report its pIC50.
Give its pIC50 value. Item: `CCCCc1ncc(/C=C\C(=O)O)n1Cc1ccccc1Cl`
5.05

---

# Species: Oryctolagus cuniculus
# Method Notes: The compound was evaluated for the inhibition of angiotensin II (AII) induced rabbit aorta constriction
# Format: functional
Catalogue of log10 Kb readings, one per entry.
Log10 applied to Kb; unit prior to transform: nM.

Give its log10 Kb value. Item: `CCCCc1ncc(/C=C(/Cc2ccccc2)C(=O)O)n1Cc1ccccc1Cl`
1.81

Give its log10 Kb value. Item: `CCCCc1ncc(/C=C\C(=O)O)n1Cc1ccccc1Cl`
2.91

Give its log10 Kb value. Item: `CCCCc1ncc(/C=C(/Cc2ccsc2)C(=O)O)n1Cc1ccc(C(=O)O)cc1`
-0.68

Give its log10 Kb value. Item: `CCCCc1nc(Cl)c(CC(=O)O)n1Cc1ccccc1Cl`
3.43

Proceeding to the next compound to report its log10 Kb.
Give its log10 Kb value. Item: `CCCCc1ncc(/C=C(/Cc2ccsc2)C(=O)O)n1Cc1ccccc1Cl`
1.71
